# Test system: P. falciparum DD2 (chloroquine-resistant)
# assay.summary: Anti-malarial activity, P. falciparum DD2 culture, 72 hour, DNA content by flow cytometry
# Format: cell-based
# condition.info: Plasmodium falciparum, synchronized ring-stage parasites
# Description: Numerous compounds were screened in cultures of the malaria parasite P. falciparum 3D7 (chloroquine-sensitive) and DD2 (chloroquine-resistant). The compounds were also screened for toxixcity against 3T3 cells, HepG2 cells, and in a hemolysis assay. In brief, P. falciparum parasites were cultured in RPMI 1640 (Invitrogen) supplemented with Albumax II (Invitrogen). […] DNA content, as an indicator of parasitemia, was analyzed on an Accuri C6 Flow Cytometer with C-Sampler. […]
Would you kindly list pIC50 for each of these compounds?
Please express pIC50 as -log10 of the molar concentration.

Ask: Could you tell me which pIC50 is on file for `N=C(N)NCCCCN1CCc2ccc(NC(=O)c3cc(C(=O)Nc4ccc5c(c4)CCN(CCCCNC(=N)N)CC5)ncn3)cc2CC1` ?
Reply: 6.25

Ask: Now consider `N=C(N)NCCOc1ccccc1C(=O)Nc1ccc2c(c1)Cc1cc(NC(=O)c3ccccc3OCCNC(=N)N)ccc1-2` .
Reply: 6.53

Ask: Now consider `NCCCOc1c(-c2cccc(C(F)(F)F)c2)cc(-c2cccc(C(F)(F)F)c2)c(OCCCN)c1-c1cccc(C(F)(F)F)c1` .
Reply: 6.18

Ask: Now consider `N=C(N)NCCCc1cccc(-c2ccc3c4ccc(-c5cccc(CCCNC(=N)N)c5)cc4n(CCCNC(=N)N)c3c2)c1` .
Reply: 6.34

Ask: Now consider `N=C(N)NCCCCOc1cc(OCCCCNC(=N)N)c(C(F)(F)F)cc1NC(=O)c1cc(C(=O)Nc2cc(C(F)(F)F)c(OCCCCNC(=N)N)cc2OCCCCNC(=N)N)ncn1` .
Reply: 6.52

---

Would you kindly list EC50 for each of these molecules?
# System: HepG2 cells
# assay.summary: Cytotoxicity against HepG2 cells
# Assay type: cell-based

Ask: Could you tell me which EC50 is on file for `Cn1c(-c2ccc(CCCN)cc2)cnc1-c1ccc(CCCN)cc1` ?
Reply: > 1000 µM

Ask: Now consider `N=C(N)N1CC=C(c2ccc3sc4ccc(C5=CCN(C(=N)N)CC5)cc4c3c2)CC1` .
Reply: 221 µM

Ask: Now consider `CC(C)(C)c1ccc(NC(=O)CCCCNC(=N)N)c(-c2ccc(-c3cc(C(C)(C)C)ccc3NC(=O)CCCCNC(=N)N)cc2)c1` .
Reply: 55 µM

Ask: Now consider `N=C(N)NCCCCCC(=O)Nc1cc(C(F)(F)F)cc(NC(=O)c2cc(C(=O)Nc3cc(C(F)(F)F)cc(NC(=O)CCCCCNC(=N)N)c3SCCN)ncn2)c1SCCN` .
Reply: 89 µM

Ask: Now consider `N=C(N)NCCSc1ccc(NC(=O)Nc2ccc(SCCNC(=N)N)c(C(F)(F)F)c2)cc1C(F)(F)F` .
Reply: 165 µM

Ask: Now consider `NCCc1cccc(-c2cc(-c3ccc(-c4cc(-c5cccc(CCN)c5)ncn4)s3)ncn2)c1` .
Reply: 262 µM

Ask: Now consider `c1cc2sc3ccc(N4CCNCC4)cc3c2cc1N1CCNCC1` .
Reply: 410 µM

---

# Test system: P. falciparum 3D7 (chloroquine-sensitive)
# assay.summary: Anti-malarial activity, P. falciparum 3D7 culture, 72 hour, DNA content by flow cytometry
# Format: cell-based
# condition.info: synchronized ring-stage parasites
# Method: Numerous compounds were screened in cultures of the malaria parasite P. falciparum 3D7 (chloroquine-sensitive) and DD2 (chloroquine-resistant). The compounds were also screened for toxixcity against 3T3 cells, HepG2 cells, and in a hemolysis assay. In brief, P. falciparum parasites were cultured in RPMI 1640 (Invitrogen) supplemented with Albumax II (Invitrogen). […] DNA content, as an indicator of parasitemia, was analyzed on an Accuri C6 Flow Cytometer with C-Sampler. […]
measurement.label: pIC50
Please express pIC50 as -log10 of the molar concentration.

Ask: Could you tell me which pIC50 is on file for N=C(N)NCCSc1ccc(NC(=O)Nc2ccc(OC3CCN(C(=N)N)C3)c(C(F)(F)F)c2)cc1C(F)(F)F (centres unmarked) ?
Reply: 7.42

Ask: Now consider `NCCc1cccc(-c2cn(-c3cccc(CCN)c3)nn2)c1` .
Reply: 6.25

Ask: Now consider `NCCc1ccc(-c2ccc(-c3ccc(CCN)cc3)s2)cc1` .
Reply: 7.47

Ask: Now consider `Cn1c(-c2cccc(CCNC(=N)N)c2)cnc1-c1cccc(CCNC(=N)N)c1` .
Reply: 8.30

Ask: Now consider `CC(C)(C)c1cc(N)c(SCCN)c(NC(=O)c2cccc(C(=O)Nc3cc(C(C)(C)C)cc(N)c3SCCN)c2)c1` .
Reply: 6.25

Ask: Now consider `N=C(N)NCCSc1ccc(NC(=O)Nc2ccc(SCCNC(=N)N)c(C(F)(F)F)c2)cc1C(F)(F)F` .
Reply: 7.08
